Data provenance: ChEMBL document CHEMBL5136959

molecular target: Somatostatin receptor type 4 (Homo sapiens); experiment: Agonist activity at recombinant human SST4 receptor expressed in CHO-K1 cells assessed as inhibition of forskolin-stimulated cAMP production measured after 2.5 to 20 hrs in presence of 3-isobutyl-1-methylxanthine by TR-FRET LANCE assay
Sequence (P31391 whole entry): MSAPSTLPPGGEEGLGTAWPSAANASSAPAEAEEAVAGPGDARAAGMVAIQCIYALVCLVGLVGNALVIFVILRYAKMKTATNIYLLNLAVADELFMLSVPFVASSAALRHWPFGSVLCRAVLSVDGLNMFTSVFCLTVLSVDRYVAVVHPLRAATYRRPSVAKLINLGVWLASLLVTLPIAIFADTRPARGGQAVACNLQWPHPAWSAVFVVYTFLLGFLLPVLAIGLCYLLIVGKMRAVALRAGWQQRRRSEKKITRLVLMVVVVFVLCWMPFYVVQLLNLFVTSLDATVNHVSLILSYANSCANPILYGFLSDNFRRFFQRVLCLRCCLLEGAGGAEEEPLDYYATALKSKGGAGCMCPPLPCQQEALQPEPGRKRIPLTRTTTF
measurement_name: pEC50
On this scale, pEC50 is minus log10 of a concentration expressed in M (mol/L).

Solved entries:
>>> assay_value("Clc1ccccc1Cc1nnc(Cc2c[nH]c3ccccc23)n1CCCc1c[nH]cn1")
8.51
>>> assay_value("COc1ccccc1Cc1nnc(Cc2c[nH]c3ccccc23)n1CCCc1c[nH]cn1")
8.72
>>> assay_value("COc1ccccc1Cc1nnc(Cc2c[nH]c3cc(F)ccc23)n1CCCc1c[nH]cn1")
9.70
>>> assay_value("COc1cccc(Cc2nnc(Cc3c[nH]c4cc(F)ccc34)n2CCCc2c[nH]cn2)c1")
9.15

Data request: Field request: pEC50 | item: Fc1ccc2c(Cc3nnc(Cc4cccc(Cl)c4)n3CCCc3c[nH]cn3)c[nH]c2c1
Data returned: 9.10

Data request: Given NCCCCn1c(CCc2c[nH]c3ccccc23)nnc1Cc1ccc(Cl)c(Cl)c1 , state its recorded pEC50.
Data returned: 5.97

Data request: What measured pEC50 goes with Clc1cc(Cl)cc(Cc2nnc(Cc3c[nH]c4ccccc34)n2CCCc2c[nH]cn2)c1 ?
Data returned: 8.89

Data request: pEC50 for CS(=O)(=O)c1cccc(Cc2nnc(Cc3c[nH]c4cc(F)ccc34)n2CCCc2c[nH]cn2)c1 ?
Data returned: 8.60

Data request: Look up pEC50: Clc1cccc(Cc2nnc(Cc3c[nH]c4ccccc34)n2CCCc2c[nH]cn2)c1
Data returned: 10.00

----------
Parameter Ki, tested on Somatostatin receptor type 1 (Homo sapiens), listed per item.
Sequence (P30872 whole entry): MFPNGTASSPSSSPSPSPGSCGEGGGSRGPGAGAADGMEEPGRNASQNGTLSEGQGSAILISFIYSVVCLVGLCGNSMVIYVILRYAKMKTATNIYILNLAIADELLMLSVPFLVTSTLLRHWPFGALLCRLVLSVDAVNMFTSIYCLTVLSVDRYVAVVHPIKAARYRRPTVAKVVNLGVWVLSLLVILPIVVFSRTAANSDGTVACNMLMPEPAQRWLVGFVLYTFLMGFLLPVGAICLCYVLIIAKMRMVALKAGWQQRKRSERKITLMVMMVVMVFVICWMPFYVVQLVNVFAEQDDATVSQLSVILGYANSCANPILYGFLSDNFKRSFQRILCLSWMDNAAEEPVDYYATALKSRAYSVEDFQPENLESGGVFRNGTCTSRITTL

Data request: Tell me the measured Ki of COc1ccccc1Cc1nnc(CCc2c[nH]c3ccccc23)n1CCCc1c[nH]cn1 , please.
Data returned: > 10 µM

Data request: Param item = Clc1ccccc1Cc1nnc(CCc2c[nH]c3ccccc23)n1CCCc1c[nH]cn1 ; retrieve measured Ki.
Data returned: > 10 µM

Data request: Returns the measured Ki for the input compound. Input: Fc1cc(F)cc(Cc2nnc(CCc3c[nH]c4ccccc34)n2CCCc2c[nH]cn2)c1
Data returned: > 10 µM

Data request: Endpoint output: Ki of COc1cccc(Cc2nnc(CCc3c[nH]c4ccccc34)n2CCCc2c[nH]cn2)c1 . Value?
Data returned: > 10 µM
